biological target: T1, Recombinant Human DLL4 (delta-like protein 4) (human, UniProt Q9NR61 27-524); experiment: ELISA, DLL4 coated on plate, Fab at 100 nM (2-fold dilution series), absorbance at 450 nm
T1 construct: Bought recombinant human DLL4 coated on the ELISA plate; also called rHuman DLL4
We begin with a simple list: items and their reported ELISA signal.
Output: the number by itself.

Fab VH5-51_IGHD5-18*01>3_IGHJ4*01 G100K/G104T G24T/S28R/G35V (KT TRV) & V3-4_IGLJ1*01 V91L/S96P S52L (Fab, V domains shown, Fab; Expressed in E. coli with CH1 (plasmid A, His6 and Flag tags) and lambda CL (plasmid E); also called H:KT TRV & L:LP S52L) VH: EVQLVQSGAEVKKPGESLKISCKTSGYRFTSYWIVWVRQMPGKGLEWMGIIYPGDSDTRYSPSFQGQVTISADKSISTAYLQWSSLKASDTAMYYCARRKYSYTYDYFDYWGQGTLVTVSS VL: QTVVTQEPSFSVSPGGTVTLTCGLSSGSVSTSYYPSWYQQTPGQAPRTLIYLTNTRSSGVPDRFSGSILGNKAALTITGAQADDESDYYCLLYMGPGISYVFGTGTKVTVL    1.02

Now for another entry.
Query string: Fill in the blank: the reported ELISA signal of Fab VH5-51_IGHD5-18*01>3_IGHJ4*01 G100K/G104T G24A/S28R/G35V (KT ARV) & V3-4_IGLJ1*01 V91L/S96P S52I (Fab, V domains shown, Fab; Expressed in E. coli with CH1 (plasmid A, His6 and Flag tags) and lambda CL (plasmid E); also called G100K/G104T G24A/S28R/G35V & V91L/S96P S52I) VH: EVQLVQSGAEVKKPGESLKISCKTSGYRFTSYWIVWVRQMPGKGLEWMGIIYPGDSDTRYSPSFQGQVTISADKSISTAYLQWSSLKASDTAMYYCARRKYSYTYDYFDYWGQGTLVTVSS VL: QTVVTQEPSFSVSPGGTVTLTCGLSSGSVSTSYYPSWYQQTPGQAPRTLIYITNTRSSGVPDRFSGSILGNKAALTITGAQADDESDYYCLLYMGPGISYVFGTGTKVTVL is ____.
Result string: 1.04
